Values from patent US11987648B2

Parameter SST5/2 Selectivity: see the listing below.
Target: SST5 (Homo sapiens)
Sequence (P35346 whole entry): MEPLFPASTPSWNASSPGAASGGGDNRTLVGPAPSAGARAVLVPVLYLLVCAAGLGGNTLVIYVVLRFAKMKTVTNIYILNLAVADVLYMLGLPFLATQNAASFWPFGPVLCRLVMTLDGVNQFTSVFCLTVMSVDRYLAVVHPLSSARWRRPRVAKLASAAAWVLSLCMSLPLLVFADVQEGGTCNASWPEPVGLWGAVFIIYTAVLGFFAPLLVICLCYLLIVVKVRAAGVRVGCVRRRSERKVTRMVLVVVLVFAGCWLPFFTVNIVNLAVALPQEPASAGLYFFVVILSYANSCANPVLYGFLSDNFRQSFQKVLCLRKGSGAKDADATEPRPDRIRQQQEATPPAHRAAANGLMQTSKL
Experiment: Hit Hunter cAMP XS+ assay, SST5 activation via Gi (reduction of forskolin-stimulated cAMP)
Type: cell-based
Settings: selectivity for SST5 over SST2
*1 amine or outer side, *2 acyl side, *3 side chain or, on linkers, in order; H or OH if unused. Where a SMILES comes first, the peptide text is derived from it. Side-chain parts run from the residue outwards. [ ]: non-standard residue; d: D form. The star is where a group is joined. Ala(piperidin-4-yl) = O=C([C@H](CC1CCN([*:3])CC1)N[*:1])[*:2]; dTrp(4-OMe) = COc1cccc2[nH]cc(C[C@@H](N)C(=O)O)c12; dTrp(5-OMe) = COc1ccc2[nH]cc(C[C@@H](N)C(=O)O)c2c1; X2 = O=C([C@@H]1C[C@@H](Oc2ccncc2)CN1[*:1])[*:2]; dTrp(4-Me) = Cc1cccc2[nH]cc(C[C@@H](N)C(=O)O)c12; Ala(piperazin-1-yl) = N[C@@H](CN1CCNCC1)C(=O)O; Tyr(Ph) = N[C@@H](Cc1ccc(Oc2ccccc2)cc1)C(=O)O; X7 = NCCOC(=O)N1CCN([*:1])[C@H](C(=O)[*:2])C1; Phe(3-Br) = N[C@@H](Cc1cccc(Br)c1)C(=O)O; Phe(3-Cl) = N[C@@H](Cc1cccc(Cl)c1)C(=O)O; Ethylenediamine = C(CN[*:2])N[*:1]; d(hPhe) = N[C@H](CCc1ccccc1)C(=O)O; Hyp = O=C(O)[C@@H]1C[C@@H](O)CN1; hPhe = N[C@@H](CCc1ccccc1)C(=O)O; 3Pal = N[C@@H](Cc1cccnc1)C(=O)O; Tic = O=C(O)[C@@H]1Cc2ccccc2CN1; Phg = N[C@H](C(=O)O)c1ccccc1; CO = O=C([*:1])[*:2]; Bn = c1ccc(C*)cc1

# compound, tgt, SST5/2 Selectivity
measured = [
    ("O=C1N[C@@H](Cc2ccc(OCc3ccccc3)cc2)C(=O)N[C@@H](Cc2cccnc2)C(=O)N2C[C@H](Oc3ccncc3)C[C@H]2C(=O)N[C@H](CCc2ccccc2)C(=O)N[C@@H](Cc2c[nH]c3ccccc23)C(=O)N[C@H]1CC1CCNCC1 [Example 24] (cyclo([3Pal][X2][d(hPhe)]W[Ala(piperidin-4-yl)]Y(Bn)))", "SST5 (Homo sapiens)", 110.6),
    ("COc1ccc2[nH]cc(C[C@H]3NC(=O)[C@H](CCc4ccccc4)NC(=O)[C@@H]4C[C@@H](OC(=O)NCCN)CN4C(=O)[C@H](Cc4cccnc4)NC(=O)[C@H](Cc4ccc(OCc5ccccc5)cc4)NC(=O)[C@H](CC4CCNCC4)NC3=O)c2c1 [Example 39] (cyclo([3Pal][Hyp]([CO-Ethylenediamine])[hPhe][dTrp(5-OMe)][Ala(piperidin-4-yl)]Y(Bn)))", "SST5 (Homo sapiens)", 1104.6),
    ("Cc1cccc2[nH]cc(C[C@H]3NC(=O)[C@H](CCc4ccccc4)NC(=O)[C@@H]4C[C@@H](OC(=O)NCCN)CN4C(=O)[C@H](Cc4cccnc4)NC(=O)[C@H](Cc4ccc(OCc5ccccc5)cc4)NC(=O)[C@H](CC4CCNCC4)NC3=O)c12 [Example 60] (cyclo([3Pal][Hyp]([CO-Ethylenediamine])[hPhe][dTrp(4-Me)][Ala(piperidin-4-yl)]Y(Bn)))", "SST5 (Homo sapiens)", 129.4),
    ("O=C1N[C@@H](Cc2cccnc2)C(=O)N2C[C@H](Oc3ccncc3)C[C@H]2C(=O)N[C@@H](CCc2ccccc2)C(=O)N[C@H](Cc2c[nH]c3ccccc23)C(=O)N[C@@H](CC2CCNCC2)C(=O)N[C@H]1Cc1ccc(OCc2ccccc2)cc1 [Example 22] (cyclo([3Pal][X2][hPhe][dW][Ala(piperidin-4-yl)]Y(Bn)))", "SST5 (Homo sapiens)", 142.6),
    ("NCCNC(=O)O[C@@H]1C[C@H]2C(=O)N[C@@H](c3ccccc3)C(=O)N[C@H](Cc3c[nH]c4ccccc34)C(=O)N[C@@H](CC3CCNCC3)C(=O)N[C@@H](Cc3ccc(OCc4ccccc4)cc3)C(=O)N[C@@H](Cc3cccc(Br)c3)C(=O)N2C1 [Example 10] (cyclo([Hyp]([CO-Ethylenediamine])[Phg][dW][Ala(piperidin-4-yl)]Y(Bn)[Phe(3-Br)]))", "SST5 (Homo sapiens)", 38.9),
    ("NCCNC(=O)O[C@@H]1C[C@H]2C(=O)N[C@H](CCc3ccccc3)C(=O)N[C@@H](Cc3c[nH]c4ccccc34)C(=O)N[C@@H](CN3CCNCC3)C(=O)N[C@@H](Cc3ccc(OCc4ccccc4)cc3)C(=O)N3Cc4ccccc4C[C@H]3C(=O)N2C1 [Example 35] (cyclo([Hyp]([CO-Ethylenediamine])[d(hPhe)]W[Ala(piperazin-1-yl)]Y(Bn)[Tic]))", "SST5 (Homo sapiens)", 10046.0),
    ("COc1cccc2[nH]cc(C[C@H]3NC(=O)[C@H](c4ccccc4)NC(=O)[C@@H]4C[C@@H](OC(=O)NCCN)CN4C(=O)[C@H](Cc4ccccc4)NC(=O)[C@H](Cc4ccc(OCc5ccccc5)cc4)NC(=O)[C@H](CN4CCNCC4)NC3=O)c12 [Example 64] (cyclo(F[Hyp]([CO-Ethylenediamine])[Phg][dTrp(4-OMe)][Ala(piperazin-1-yl)]Y(Bn)))", "SST5 (Homo sapiens)", 5.5),
    ("NCCNC(=O)O[C@@H]1C[C@H]2C(=O)N[C@@H](CCc3ccccc3)C(=O)N[C@H](Cc3c[nH]c4ccccc34)C(=O)N[C@@H](CC3CCNCC3)C(=O)N[C@@H](Cc3ccc(OCc4ccccc4)cc3)C(=O)N[C@@H](Cc3ccccc3)C(=O)N2C1 [Example 28] (cyclo(F[Hyp]([CO-Ethylenediamine])[hPhe][dW][Ala(piperidin-4-yl)]Y(Bn)))", "SST5 (Homo sapiens)", 101.0),
    ("NCCOC(=O)N1CCN2C(=O)[C@@H]3Cc4ccccc4CN3C(=O)[C@H](Cc3ccc(OCc4ccccc4)cc3)NC(=O)[C@H](CN3CCNCC3)NC(=O)[C@@H](Cc3c[nH]c4ccccc34)NC(=O)[C@H](CCc3ccccc3)NC(=O)[C@@H]2C1 [Example 72] (cyclo([Tic][X7][hPhe][dW][Ala(piperazin-1-yl)]Y(Bn)))", "SST5 (Homo sapiens)", 1621.3),
    ("NCCNC(=O)O[C@@H]1C[C@H]2C(=O)N[C@@H](CCc3ccccc3)C(=O)N[C@H](Cc3c[nH]c4ccccc34)C(=O)N[C@@H](CN3CCNCC3)C(=O)N[C@@H](Cc3ccc(OCc4ccccc4)cc3)C(=O)N[C@@H](Cc3cccc(Cl)c3)C(=O)N2C1 [Example 48] (cyclo([Hyp]([CO-Ethylenediamine])[hPhe][dW][Ala(piperazin-1-yl)]Y(Bn)[Phe(3-Cl)]))", "SST5 (Homo sapiens)", 106.6),
    ("NCCNC(=O)O[C@@H]1C[C@H]2C(=O)N[C@@H](CCc3ccccc3)C(=O)N[C@H](Cc3c[nH]c4ccccc34)C(=O)N[C@@H](CC3CCNCC3)C(=O)N[C@@H](Cc3ccc(Oc4ccccc4)cc3)C(=O)N[C@@H](Cc3cccnc3)C(=O)N2C1 [Example 67] (cyclo([3Pal][Hyp]([CO-Ethylenediamine])[hPhe][dW][Ala(piperidin-4-yl)][Tyr(Ph)]))", "SST5 (Homo sapiens)", 25.7),
]
